- TARGET: recombinant monomeric SARS-CoV-1 S1 protein (SARS-CoV-1, UniProt P59594 14-667)
- ASSAY_TEXT: flow cytometry, blocking of binding to hACE-2 cells
MEASURED_QUANTITY: percent blocking (%)
Give the quantity in %, number only.

### Prompt Supply percent blocking value. Item: 1035423 (antibody, V domains shown) VH: EVKLEESGGGLVQPGGSMKLSCTASGFTFSDAWMDWVRQSPEKGLEWVAEIRNKANNHATYYAESVKGRFTISRDDSKSSVYLQMNSLRAEDTGIYYCILFITYAMDYWGQGTSVTVSS VL: DIVLTQSQKFMSTSVGDRVSITCKASQNVRTAVAWYQQKPGQSPKALIYLASNRHTGVPDRFTGSGSGTDFTLTISNVQSEDLADYFCLQHWNYPLTFGSGTKLELK
### Response 0

---
### Prompt Give reported percent blocking value for 1035753 (antibody, V domains shown) VH: EVQLQQSGAELVRPGALVKLSCKASGFNIKDYYMHWVKQRPEQGLEWIGWIDPENGNTIYDPKFLGKASITADTSSNTAYLQLSSLTSEDTAVYYCARWYYYAMDSWGQGTSVTVSS VL: DIQMTQTTSSLSASLGDRVTISCSASQGISNYLNWYQQKPDGTVKLLIYYTSSLHSGVPSRFSGSGSGTDYSLTISNLEPEDIATYYCQQYSKLPFTFGGGTNLEMK
### Response 0

### Prompt Fill in percent blocking for record 1035716 (antibody, V domains shown) VH: EVLLQQSGPELVKPGASVKIPCKASGYTFTDYNMDWVKQSHGKSLEWIGDINPNNGGTIYNQKFKGKATLTVDKSSSTAYMELRSLTSEDTAVYYCAREGYGNYFDYWGQGTTLTVSS VL: DILLTQSPAILSVSPGERVSFSCRASQSIGTSIHWYQQRTNGSPRLLIKYASESISGIPSRFSGSGSGTDYTLSINSVESEDIADYYCQQSYSWPTTFGAGTKLELK
### Response 89.5
